Some molecules, each annotated with its measured EC50.
# testTarget: human GPR40 (Homo sapiens, UniProt O14842)
# Construct: host or cells: HEK-293
# Sequence (O14842 whole entry): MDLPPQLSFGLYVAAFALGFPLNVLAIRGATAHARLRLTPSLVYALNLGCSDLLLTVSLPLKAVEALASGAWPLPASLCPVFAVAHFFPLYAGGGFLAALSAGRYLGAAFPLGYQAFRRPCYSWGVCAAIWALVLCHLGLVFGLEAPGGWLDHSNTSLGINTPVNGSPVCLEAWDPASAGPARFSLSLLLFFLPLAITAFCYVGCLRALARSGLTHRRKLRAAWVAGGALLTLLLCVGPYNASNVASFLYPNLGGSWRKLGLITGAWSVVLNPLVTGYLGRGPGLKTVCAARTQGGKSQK
# measurementProtocol: Activation of GPR40 protein: intracellular calcium change (Fluo-4, Flexstation 3) in transfected HEK-293 cells
# Format: cell-based
# assaySetup: HEK-293 cells transfected with human GPR40; intracellular calcium; read-out: EC50

Example results:
CC#C[C@@H](CC(=O)O)c1ccc(OCc2ccc(CN3CCN(c4ccc(C#N)cn4)CC3)cc2)cc1; > 300 nM
CC#C[C@@H](CC(=O)O)c1ccc(OCc2cccc(C3=CCC4(CC3)OCCO4)c2)cc1; < 200 nM
CC#C[C@@H](CC(=O)O)c1ccc(OCc2ccc(CCN3CCc4cc(OC)ccc4C3)cc2)cc1; > 300 nM
CC#C[C@@H](CC(=O)O)c1ccc(OCc2ccc(CN3CC=C(c4ccc(S(C)(=O)=O)cc4)CC3)cc2)cc1; > 300 nM
CC#CC(CC(=O)O)c1ccc(OCc2ccc(CN3CCN(c4ccc(C(F)(F)F)cc4)CC3)cc2)cc1 (stereo not drawn); > 300 nM

(Q) For the record `CC#C[C@@H](CC(=O)O)c1ccc(OCc2ccc(CN3CC=C(c4ccc(OCCCS(C)(=O)=O)cc4)CC3)cc2)cc1` , what value of EC50 is listed for human GPR40 (Homo sapiens, UniProt O14842)?
(A) > 300 nM

(Q) Also need CC#CC(CC(=O)O)c1ccc(OCc2ccc(CN3CC=C(c4ccccc4)CC3)cc2)cc1 (stereo not drawn) , thanks.
(A) < 200 nM

(Q) Next record, please: `CC#C[C@@H](CC(=O)O)c1ccc(OCc2ccc(CN3CCN(c4ncc(CCC)cn4)CC3)cc2)cc1`
(A) > 300 nM

(Q) Ok, now CC#C[C@@H](CC(=O)O)c1ccc(OCc2ccc(C(C)N3CCc4ccccc4C3)cc2)cc1 (stereo partly drawn)
(A) > 300 nM
